- Experimental target: T1, nectin-4 on intact HT-1376 cells (human (endogenous in HT-1376), UniProt Q96NY8 32-510)
- T1 construct: also called cellular nectin-4
- T1 sequence (looked up): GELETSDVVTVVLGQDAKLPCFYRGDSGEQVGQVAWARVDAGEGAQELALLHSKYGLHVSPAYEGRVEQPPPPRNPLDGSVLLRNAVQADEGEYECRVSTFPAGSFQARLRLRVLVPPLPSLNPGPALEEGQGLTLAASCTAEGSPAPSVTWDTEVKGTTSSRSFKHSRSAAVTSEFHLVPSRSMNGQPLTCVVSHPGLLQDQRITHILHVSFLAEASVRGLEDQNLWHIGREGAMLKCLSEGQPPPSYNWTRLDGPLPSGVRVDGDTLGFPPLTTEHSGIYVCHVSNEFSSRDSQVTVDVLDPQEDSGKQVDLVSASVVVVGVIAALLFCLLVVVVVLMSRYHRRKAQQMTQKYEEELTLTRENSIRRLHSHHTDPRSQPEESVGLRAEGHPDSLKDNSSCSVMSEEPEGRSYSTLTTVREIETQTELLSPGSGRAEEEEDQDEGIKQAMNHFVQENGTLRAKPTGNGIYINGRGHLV
- Measurement description: radioligand binding; intact HT-1376 cells, 10 nM radioligand, 37 °C, 1 h, PBS wash; nonspecific binding with 1 µM 1d (3a for [68Ga]Ga-8d); specific binding in fmol/mg protein
- Run parameters: one partner purified
Numbered stars: 1 amine (or outer) side, 2 acyl side, 3 side chain; on linkers, the order of the positions; unused ones are H or OH. Bridge positions count the residues as written; N and C are the ends. Square brackets hold non-standard residues; d marks the D form. * marks the point of attachment. (R)‑NODAGA = O=C(O)CN1CCN(CC(=O)O)CCN([C@H](CCC(=O)*)C(=O)O)CC1; DOTA = O=C(O)CN1CCN(CC(=O)O)CCN(CC(=O)*)CCN(CC(=O)O)CC1; TATA = O=C(CC[*:1])N1CN(C(=O)CC[*:2])CN(C(=O)CC[*:3])C1; 1Nal = N[C@@H](Cc1cccc2ccccc12)C(=O)O; 2Nal = N[C@@H](Cc1ccc2ccccc2c1)C(=O)O; Hyp = O=C(O)[C@@H]1C[C@@H](O)CN1; hArg = N=C(N)NCCCC[C@H](N)C(=O)O
Each record here notes measured specific cell binding at 10 nM radioligand.
Measured quantity: specific cell binding at 10 nM radioligand (fmol/mg)

>  <Binder>
{DOTA}-CP[2Nal][dD]CMRDWSTP[Hyp]WC-NH2 (linker 1-5-15 via TATA; also: DOTA complexed with 68Ga) [[68Ga]Ga-8c]

>  <Measurement>
38.4

$$$$
>  <Binder>
{(R)‑NODAGA}-CP[1Nal][dD]CM[hArg]DWSTP[Hyp]WC-NH2 (linker 1-5-15 via TATA; also: NODAGA complexed with 68Ga) [[68Ga]Ga-1e]

>  <Measurement>
474

$$$$
>  <Binder>
{(R)‑NODAGA}-CP[1Nal][dD]CM[hArg]DWSTP[Hyp]WC-NH2 (linker 1-5-15 via TATA; also: NODAGA complexed with 64Cu) [[64Cu]Cu-1e]

>  <Measurement>
159

$$$$
>  <Binder>
{(R)‑NODAGA}-CP[2Nal][dD]CMRDWSTP[Hyp]WC-NH2 (linker 1-5-15 via TATA; also: NODAGA complexed with 64Cu) [[64Cu]Cu-8a]

>  <Measurement>
15.6

$$$$
